Target: recombinant human CXCR2 (Homo sapiens, UniProt P25025)
Construct: TEV protease site; Gal4-VP16 transcription factor
Sequence (P25025 whole entry, the tested form may be a part): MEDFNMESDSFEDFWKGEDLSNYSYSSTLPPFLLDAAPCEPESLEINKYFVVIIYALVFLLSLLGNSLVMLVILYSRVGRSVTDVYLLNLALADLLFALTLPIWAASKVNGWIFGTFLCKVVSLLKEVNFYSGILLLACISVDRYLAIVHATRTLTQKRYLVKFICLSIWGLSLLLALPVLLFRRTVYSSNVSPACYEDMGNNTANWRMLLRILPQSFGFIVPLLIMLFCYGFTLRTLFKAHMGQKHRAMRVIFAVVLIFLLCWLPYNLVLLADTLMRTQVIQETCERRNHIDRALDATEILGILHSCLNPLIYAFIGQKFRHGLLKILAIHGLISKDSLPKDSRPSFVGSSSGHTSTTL
Assay: CXCR2 Tango assay
Format: cell-based
Settings: mean pIC50 of multiple test results; stimulated with 80 nM hCXCL1; reporter gene blue/green emission ratio; read-out: pIC50 (CXCR2 Tango assay) (converted)
Where a name gives a salt, the structure may show the parent alone.
Assay Readout: IC50

Prompt line: Can you look up IC50 on recombinant human CXCR2 (Homo sapiens, UniProt P25025) for O=C(Nc1ccc(Cl)c(S(=O)(=O)C2(F)CCOCC2)c1O)N[C@@H]1CCC=C1Cl ?
Response line: ≤ 1 nM

Prompt line: Thanks! And CO[C@H]1C[C@@H](S(=O)(=O)c2c(Cl)ccc(NC(=O)N[C@@H]3CCC=C3C)c2O)C1 ?
Response line: ≤ 1 nM

Prompt line: Thanks! And O=C(Nc1ccc(Cl)c(S(=O)(=O)[C@H]2C[C@H](N3CCCC3)C2)c1O)NC1CCC=C1Cl (some centres unmarked) [Compound 177, trifluoroacetic acid salt] ?
Response line: ≤ 10 nM

Prompt line: Thanks! And O=C(Nc1ccc(Cl)c(S(=O)(=O)[C@H]2C[C@H](N3CCCC3)C2)c1O)N[C@@H]1CCC=C1Cl [Compound 185, trifluoroacetic acid salt] ?
Response line: ≤ 10 nM

Prompt line: Thanks! And CC1=CCC[C@H]1NC(=O)Nc1ccc(Cl)c(S(=O)(=O)C(C)(F)F)c1O ?
Response line: ≤ 1 nM

Prompt line: Thanks! And CC1=CCC[C@H]1NC(=O)Nc1ccc(Cl)c(S(=O)(=O)C2(F)CCOCC2)c1O ?
Response line: ≤ 1 nM

Prompt line: Thanks! And CCC1=CCCC1NC(=O)Nc1ccc(Cl)c(S(=O)(=O)C(C)C)c1O (centres unmarked) ?
Response line: ≤ 10 nM

Prompt line: Thanks! And CC1=CCC[C@H]1NC(=O)Nc1ccc(C#N)c(S(=O)(=O)C(C)(C)F)c1O ?
Response line: ≤ 1 nM

---

Molecular target: recombinant human CXCR2 (Homo sapiens, UniProt P25025)
Construct: TEV protease site; Gal4-VP16 transcription factor
Experiment: CXCR2 Tango assay
Format: cell-based
Conditions: mean pIC50 of multiple test results; stimulated with 80 nM hCXCL1; reporter gene blue/green emission ratio; read-out: pIC50 (CXCR2 Tango assay) (converted)
Where a name gives a salt, the structure may show the parent alone.
Assay Readout: IC50

Prompt line: IC50 lookup needed for CC(C)(F)S(=O)(=O)c1c(Cl)ccc(NC(=O)NC2C=CCC2)c1O (stereo not drawn) , thanks.
Response line: ≤ 10 nM

Prompt line: Thanks! And CC1=CCCC1NC(=O)Nc1ccc(Cl)c(S(=O)(=O)C(C)(C)F)c1O (stereo not drawn) ?
Response line: ≤ 10 nM

Prompt line: Thanks! And O=C(Nc1ccc(Cl)c(S(=O)(=O)C2(F)CCOC2)c1O)N[C@@H]1CCC=C1Cl (stereo partly drawn) ?
Response line: ≤ 1 nM

Prompt line: Thanks! And CC1=CCC[C@H]1NC(=O)Nc1ccc(Cl)c(S(=O)(=O)C(C)(C)C)c1O ?
Response line: ≤ 1 nM

Prompt line: Thanks! And CC1=CCCC1NC(=O)Nc1ccc(Cl)c(S(=O)(=O)[C@H]2C[C@H](N3CCCC3)C2)c1O (stereo partly drawn) [Compound 96, trifluoroacetic acid salt] ?
Response line: ≤ 10 nM

Prompt line: Thanks! And [2H]C([2H])([2H])C1(S(=O)(=O)c2c(Cl)ccc(NC(=O)N[C@@H]3CCC=C3Cl)c2O)CCOCC1 ?
Response line: ≤ 1 nM

Prompt line: Thanks! And CC1=CCC[C@H]1NC(=O)Nc1ccc(Cl)c(S(=O)(=O)C(F)(F)c2ccccn2)c1O [Compound 63, trifluoroacetic acid salt] ?
Response line: ≤ 1 nM

Prompt line: Thanks! And CC1=CCCC1NC(=O)Nc1ccc(Cl)c(S(=O)(=O)[C@H]2C[C@@H](O)C2)c1O (stereo partly drawn) ?
Response line: ≤ 1 nM

Prompt line: Thanks! And CC1=CCCC1NC(=O)Nc1ccc(Cl)c(S(=O)(=O)C(C)C)c1O (stereo not drawn) ?
Response line: ≤ 1 nM

Prompt line: Thanks! And CC1=CCCC1NC(=O)Nc1ccc(Cl)c(S(=O)(=O)N2CCOCC2)c1O (stereo not drawn) ?
Response line: ≤ 10 nM

Prompt line: Thanks! And O=C(Nc1ccc(Cl)c(S(=O)(=O)[C@H]2C[C@H](N3CCCC3)C2)c1O)NC1C=CCC1 (stereo partly drawn) ?
Response line: ≤ 10 nM

Prompt line: Thanks! And CC1=CCC[C@H]1NC(=O)Nc1ccc(Cl)c(S(=O)(=O)C2CC(F)(F)C2)c1O [Compound 76, trifluoroacetic acid salt] ?
Response line: ≤ 1 nM

Prompt line: Thanks! And CC1=CCC[C@H]1NC(=O)Nc1ccc(Cl)c(S(=O)(=O)N2CC[C@@H](F)C2)c1O [Compound 87, trifluoroacetic acid salt] ?
Response line: ≤ 10 nM

Prompt line: Thanks! And CC1=CCC[C@H]1NC(=O)Nc1ccc(Cl)c(S(=O)(=O)C2CC[C@@H](N(C)C)C2)c1O (stereo partly drawn) ?
Response line: ≤ 1 nM

Prompt line: Thanks! And CC1=CCC[C@H]1NC(=O)Nc1ccc(Cl)c(S(=O)(=O)C2(C)CCOC2)c1O (stereo partly drawn) ?
Response line: ≤ 10 nM
